molecular target: UniProt P14618; assay: Luminescent pyruvate kinase-luciferase coupled assay (KinaseGlo); format: biochemical; details: luciferase-coupled assay; relative to activation by FBP; read-out: maximum response

- record-smiles: "O=S(=O)(c1ccc2c(c1)OCCO2)N1CCN(S(=O)(=O)c2cccc[n+]2[O-])CC1"
  unit-descriptor: "%"
  relation: "="
  Emax: 104
- record-smiles: "O=S(=O)(c1cccc(F)c1)N1CCN(S(=O)(=O)c2ccc3c(c2)OCCO3)CC1"
  unit-descriptor: "%"
  relation: "="
  Emax: 96.3
- record-smiles: "Cc1cc2c(s1)c1c(C)nn(Cc3ccccc3F)c(=O)c1n2C"
  unit-descriptor: "%"
  relation: "<"
  Emax: 80
- record-smiles: "Cc1cc2c(s1)c1cnn(Cc3ccc(C(F)(F)F)cc3F)c(=O)c1n2C"
  unit-descriptor: "%"
  relation: "<"
  Emax: 80
- record-smiles: "CC(C)c1cc2c(s1)c1cnn(Cc3ccccc3F)c(=O)c1n2C"
  unit-descriptor: "%"
  relation: "="
  Emax: 100
- record-smiles: "Cn1c2ccsc2c2ncn(Cc3ccccc3F)c(=O)c21"
  unit-descriptor: "%"
  relation: "<"
  Emax: 80

----------
The reader will find reported activation at 57 µM values listed item by item below.
target: hPK-M2 (Homo sapiens); assay: Luminescent pyruvate kinase-luciferase coupled assay (KinaseGlo); type: biochemical; details: KinaseGlo; % activation at 57 μM of compound; read-out: hPK, M2 Max. Res.

- record-smiles: "Nc1cccc(S(=O)(=O)N2CCCN(S(=O)(=O)c3ccc4c(c3)OCCO4)CC2)c1"
  activation at 57 µM [%]: 88.9
- record-smiles: "O=S(=O)(N[C@H]1CC[C@H](NS(=O)(=O)c2c(F)cccc2F)CC1)c1ccc2c(c1)OCCO2"
  activation at 57 µM [%]: 90.8
- record-smiles: "Cc1cc2c(s1)c1cnn(Cc3ccccc3F)c(=O)c1n2C"
  activation at 57 µM [%]: 122
- record-smiles: "O=S(=O)(c1ccc2c(c1)OCO2)N1CCN(S(=O)(=O)c2c(F)cccc2F)CC1"
  activation at 57 µM [%]: 61
- record-smiles: "Cc1cc2c(s1)c1cnn(Cc3c(F)cccc3F)c(=O)c1n2C"
  activation at 57 µM [%]: 93.8
- record-smiles: "C[C@H]1CN(S(=O)(=O)c2ccc3c(c2)OCCO3)CCN1S(=O)(=O)c1c(F)cccc1F"
  activation at 57 µM [%]: 108
- record-smiles: "COc1cc(F)c(S(=O)(=O)N2CCCN(S(=O)(=O)c3ccc4c(c3)OCCO4)CC2)c(F)c1"
  activation at 57 µM [%]: 96.7
- record-smiles: "Cc1cc2c(s1)c1cnn(Cc3ccc(Cl)cc3)c(=O)c1n2C"
  activation at 57 µM [%]: 90.6

----------
biological target: hPK-M2 (Homo sapiens); test: Luminescent pyruvate kinase-luciferase coupled assay (KinaseGlo); assay type: biochemical; conditions: luminescent pyruvate kinase-luciferase coupled assay (KinaseGlo), tables; read-out: hPK, M2 AC50
Hi! Could you tag entries with AC50 below 300 nM as y, and those at or above as n? Much appreciated.

- compound: "COc1cc(F)c(S(=O)(=O)N2CCCN(S(=O)(=O)c3cccc(NC(C)=O)c3)CC2)c(F)c1"
  classification: "n"
- compound: "O=S(=O)(NC1CCN(S(=O)(=O)c2c(F)cccc2F)C1)c1ccc2c(c1)OCCO2 (centres unmarked)"
  classification: "n"
- compound: "Cc1cc2c(s1)c1cnn(Cc3c(F)c(F)cc(F)c3F)c(=O)c1n2C"
  classification: "n"
- compound: "CC1(C)CCc2cc(S(=O)(=O)N3CCN(S(=O)(=O)c4c(F)cccc4F)CC3)ccc2O1"
  classification: "y"
- compound: "Nc1ccc(S(=O)(=O)N2CCN(S(=O)(=O)c3ccc4c(c3)OCCO4)CC2)cc1"
  classification: "n"
- compound: "O=C1CN(S(=O)(=O)c2c(F)cccc2F)CCN1S(=O)(=O)c1ccc2c(c1)OCCO2"
  classification: "y"
- compound: "O=S(=O)(c1ccc2c(c1)OCCO2)N1CCN(S(=O)(=O)c2ccccn2)CC1"
  classification: "n"
- compound: "Cn1c2ccsc2c2cnn(Cc3ccccc3F)c(=O)c21"
  classification: "n"

----------
Catalogue of activation at 57 µM readings, one per entry.
target: hPK-M2 (Homo sapiens, UniProt P14618); assay: Luminescent pyruvate kinase-luciferase coupled assay (KinaseGlo); type: biochemical; details: KinaseGlo; % activation at 57 μM of compound; read-out: hPK, M2 Max. Res.
Sequence (P14618 whole entry): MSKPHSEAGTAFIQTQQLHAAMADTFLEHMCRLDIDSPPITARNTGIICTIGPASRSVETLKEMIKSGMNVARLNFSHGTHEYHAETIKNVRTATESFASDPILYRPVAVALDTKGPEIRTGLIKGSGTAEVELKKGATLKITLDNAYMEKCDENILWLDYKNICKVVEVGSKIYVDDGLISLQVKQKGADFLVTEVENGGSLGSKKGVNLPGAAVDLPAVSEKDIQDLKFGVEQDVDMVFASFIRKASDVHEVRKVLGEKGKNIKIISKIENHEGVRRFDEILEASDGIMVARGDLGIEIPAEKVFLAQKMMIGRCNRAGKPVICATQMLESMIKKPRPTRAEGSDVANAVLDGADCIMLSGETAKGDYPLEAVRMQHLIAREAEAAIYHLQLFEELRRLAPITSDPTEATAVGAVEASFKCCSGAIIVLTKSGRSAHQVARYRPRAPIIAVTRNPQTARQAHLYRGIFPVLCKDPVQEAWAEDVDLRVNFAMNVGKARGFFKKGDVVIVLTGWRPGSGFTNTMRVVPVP

- compound: "O=S(=O)(NCC1CN(S(=O)(=O)c2c(F)cccc2F)C1)c1ccc2c(c1)OCCO2 [Compound 43]"
  unit-descriptor: "%"
  activation at 57 µM: 93.3
- compound: "Cn1c2cc(B(O)O)sc2c2cnn(Cc3ccccc3F)c(=O)c21 [Compound 86]"
  unit-descriptor: "%"
  activation at 57 µM: 101
- compound: "CCc1cc2c(s1)c1cnn(Cc3ccccc3F)c(=O)c1n2C [Compound 68]"
  unit-descriptor: "%"
  activation at 57 µM: 105
- compound: "Cc1cc2c(s1)c1cnn(Cc3ccc(C(F)(F)F)cc3F)c(=O)c1n2C [Compound 120]"
  unit-descriptor: "%"
  activation at 57 µM: 59.3
- compound: "Cc1cc2c(s1)c1cnn(Cc3cccc(C)c3F)c(=O)c1n2C [Compound 118]"
  unit-descriptor: "%"
  activation at 57 µM: 97.4
- compound: "O=S(=O)(c1ccc2c(c1)OCCO2)N1CCN(S(=O)(=O)c2ccc(F)cc2F)CC1 [Compound 14]"
  unit-descriptor: "%"
  activation at 57 µM: 113
- compound: "O=S(=O)(c1cccc(F)c1)N1CCN(S(=O)(=O)c2ccc3c(c2)OCCO3)CC1 [Compound 7]"
  unit-descriptor: "%"
  activation at 57 µM: 107
- compound: "COc1cccc(Cn2ncc3c4sc([S+](C)[O-])cc4n(C)c3c2=O)c1 (centres unmarked) [Compound 148]"
  unit-descriptor: "%"
  activation at 57 µM: 89

----------
biological target: hPK-M2 (Homo sapiens, UniProt P14618); test: Luminescent pyruvate kinase-luciferase coupled assay (KinaseGlo); format: biochemical; details: luminescent pyruvate kinase-luciferase coupled assay (KinaseGlo), tables; read-out: hPK, M2 AC50
measure: AC50

- molecule: "COc1cc(F)c(S(=O)(=O)N2CCCN(S(=O)(=O)c3ccc(N)cc3)CC2)c(F)c1 [Compound 143]"
  measure: "AC50"
  data-value: "1300 nM"
- molecule: "COC(=O)c1cc2c(s1)c1cnn(Cc3ccccc3F)c(=O)c1n2C [Compound 83]"
  measure: "AC50"
  data-value: "84 nM"
- molecule: "O=S(=O)(NC1CCN(S(=O)(=O)c2ccc3c(c2)OCCO3)C1)c1c(F)cccc1F (centres unmarked) [Compound 42]"
  measure: "AC50"
  data-value: "> 10000 nM"
- molecule: "CN(C)c1cccc(S(=O)(=O)N2CCN(S(=O)(=O)c3ccc4c(c3)OCCO4)CC2)c1 [Compound 138]"
  measure: "AC50"
  data-value: "92 nM"
- molecule: "CC(=O)c1cc2c(s1)c1cnn(Cc3ccccc3F)c(=O)c1n2C [Compound 87]"
  measure: "AC50"
  data-value: "11 nM"
- molecule: "Cn1c2cc(C#N)sc2c2cnn(Cc3ccccc3F)c(=O)c21 [Compound 82]"
  measure: "AC50"
  data-value: "47 nM"
- molecule: "COc1ccc(S(=O)(=O)N2CCN(S(=O)(=O)c3ccc(OC)cc3)CC2)cc1 [Compound 3]"
  measure: "AC50"
  data-value: "171 nM"
- molecule: "O=S(=O)(NCC1CN(S(=O)(=O)c2c(F)cccc2F)C1)c1ccc2c(c1)OCCO2 [Compound 43]"
  measure: "AC50"
  data-value: "4470 nM"

----------
biological target: UniProtKB P14618; assay: Luminescent pyruvate kinase-luciferase coupled assay (KinaseGlo); format: biochemical; details: KinaseGlo; % activation at 57 μM of compound; read-out: hPK, M2 Max. Res.
Reported activation at 57 µM values are given for each entry in this list.
measure: activation at 57 µM (%)

- compound: "CSc1cc2c(s1)c1cnn(Cc3ccccc3F)c(=O)c1n2C"
  unit-descriptor: "%"
  data-value: 96.3
- compound: "CC1(C)CCc2cc(S(=O)(=O)N3CCN(S(=O)(=O)c4c(F)cccc4F)CC3)ccc2O1"
  unit-descriptor: "%"
  data-value: 119
- compound: "COc1cccc(S(=O)(=O)N2CCN(S(=O)(=O)c3ccc4c(c3)OCCO4)CC2)c1"
  unit-descriptor: "%"
  data-value: 90
- compound: "CC(=O)Nc1cc2c(s1)c1cnn(Cc3ccccc3F)c(=O)c1n2C"
  unit-descriptor: "%"
  data-value: 58.6
- compound: "Cc1cc2c(s1)c1cnn(Cc3ccc(F)cc3)c(=O)c1n2C"
  unit-descriptor: "%"
  data-value: 102
- compound: "O=C1CN(S(=O)(=O)c2c(F)cccc2F)CCN1S(=O)(=O)c1ccc2c(c1)OCCO2"
  unit-descriptor: "%"
  data-value: 105
- compound: "Nc1ccc(S(=O)(=O)N2CCCN(S(=O)(=O)c3ccc4c(c3)OCCO4)CC2)cc1"
  unit-descriptor: "%"
  data-value: 86.6
- compound: "Cc1cc2c(s1)c1cnn(Cc3ccc(C(F)(F)F)cc3)c(=O)c1n2C"
  unit-descriptor: "%"
  data-value: 56.1
- compound: "O=S(=O)(c1ccc2c(c1)OCCO2)C1CCN(S(=O)(=O)c2c(F)cccc2F)CC1"
  unit-descriptor: "%"
  data-value: 110
- compound: "COc1ccc(S(=O)(=O)N2CCN(S(=O)(=O)c3ccc4c(c3)OCCO4)CC2)cc1"
  unit-descriptor: "%"
  data-value: 92.2
- compound: "COC(=O)c1cc2c(s1)c1cnn(Cc3ccccc3F)c(=O)c1n2C"
  unit-descriptor: "%"
  data-value: 70.4
- compound: "O=S(=O)(c1ccc2c(c1)OCCO2)N1CCN(S(=O)(=O)c2c(F)ccc(O)c2F)CC1"
  unit-descriptor: "%"
  data-value: 95.3
- compound: "CC(=O)c1cc2c(s1)c1cnn(Cc3ccccc3F)c(=O)c1n2C"
  unit-descriptor: "%"
  data-value: 108
- compound: "N#Cc1ccc(S(=O)(=O)N2CCN(S(=O)(=O)c3ccc4c(c3)OCCO4)CC2)cc1"
  unit-descriptor: "%"
  data-value: 44.1
- compound: "Cn1c2cc([S+](C)[O-])sc2c2cnn(Cc3ccccc3F)c(=O)c21 (stereo not shown)"
  unit-descriptor: "%"
  data-value: 97.9
- compound: "Cn1c2ccsc2c2cnn(Cc3ccccc3F)c(=O)c21"
  unit-descriptor: "%"
  data-value: 93.2
